- Test system: MDA-MB-231 breast
- experiment.description: NCI-60 one-dose screen, 48 h
- stated.conditions: 10 µM unless noted
The panel holds about 83,000 compounds, 20% with a hit somewhere; the sample as a whole holds those more often. The source made the active and inactive calls. Rule for the calls: active = growth percent below 10; inactive = the rest.
Outcome (select one): yes (1) for active, no (0) for inactive

Below are worked cases with known answers.
>  <compound>
CCC1OC(OC)C=CC1=O (stereo not drawn)

>  <category.label>
no (0)

$$$$
>  <compound>
O=C1C=CC(=O)N1C1c2ccccc2-c2ccccc21

>  <category.label>
no (0)

$$$$
>  <compound>
O=Nc1ccccc1N=O

>  <category.label>
no (0)

$$$$
>  <compound>
CCCCCCCCCCCCCCCC[N+](C)(CCO)Cc1cnc[nH]1 (stereo not drawn)

>  <category.label>
yes (1)

$$$$
>  <compound>
CN1c2ccccc2C(C)(C)C12C=Cc1cc(O)ccc1O2 (stereo not drawn)

>  <category.label>
no (0)

$$$$
>  <compound>
COC(=O)c1nc(=S)[nH]c(C(=O)OC)c1C(=O)c1ccc2ccccc2c1

>  <category.label>
no (0)

$$$$
>  <compound>
Cc1ccc2nc(C[n+]3ccc4ccccc4c3)ccc2c1

>  <category.label>
no (0)

$$$$
>  <compound>
Oc1c(Br)cc(Cl)cc1C(c1cc(Cl)cc(Br)c1O)C(Cl)(Cl)Cl

>  <category.label>
yes (1)

$$$$

Tell me the recorded outcome of this test for CCC(CCCN(CC)CCc1ccccc1)OC(=O)c1cc(OC)c(OC)c(OC)c1 (stereo not drawn) .
no (0)

Test call, this compound: CC1OC(OC2C(OC3CCC4(C)C(CCC5(C)C4CC=C4C6CC(C)(C)CCC6(CO)C(O)CC45C)C3(C)C)OC(C(=O)O)C(OC3OC(COC4OC(CO)C(O)C(O)C4O)C(O)C(O)C3O)C2O)C(O)C(O)C1O (stereo not drawn)
yes (1)

Hi, do you know how CCCCCCCCCCCCCCNCc1ccccc1 came out in this test?
no (0)

Dear colleague, could you share the recorded outcome for Cc1cc(C(C)(CC(C)C)c2ccc(O)c(C)c2)ccc1O when you have a moment?
no (0)

Short answer needed: outcome of this test for CCC(=O)Sc1ccccc1C(=O)Nc1ccc(Cl)cc1 ?
no (0)

# lookup: test call for CCOc1ccc(-c2nc3ccc(-c4nc5ccc(N6CCN(C)CC6)cc5[nH]4)cc3[nH]2)cc1
yes (1)

Answer briefly: the call reported for Nc1nc(N)c2c(ccc3c2ccn3Cc2cccc([N+](=O)[O-])c2)n1 in this assay.
yes (1)

---

Examples of compounds with documented growth follow.
- Tested on: UO-31 renal
- experiment.description: NCI-60 one-dose screen, 48 h (100 = growth as untreated, 0 = no growth, -100 = all killed)
- stated.conditions: 10 µM unless noted
Compounds without any hit were thinned out: in the full panel of roughly 83,000, 20% have a hit.
# value in %; strip the unit string

Examples from the recorded data:
>  <compound>
CN=C(N)N/N=C(\C)c1ccc2c(c1)Cc1cc(/C(C)=N/NC(N)=NC)ccc1-2

>  <unit.descriptor>
%

>  <reported.result>
6.24

$$$$
>  <compound>
Cn1c2ccccc2c2nnc(N/N=C/c3ccccn3)nc21

>  <unit.descriptor>
%

>  <reported.result>
4.82

$$$$

Notebook: O=C(O)c1ccc2c3c(ncnc13)-c1ccccc1C2=O , growth read as 62.7

growth reported for this compound CC(C)c1ccc2nc3ccc(C(=O)NCCN4CCN(c5ccccc5)CC4)cn3c(=O)c2c1 : 50

The compound listed as CC(C)(C)c1ccc(O)c(C2CCCCC2)c1 shows growth equal to 104

So, Cc1cc2nc(CS)[nH]c2cc1C ? Its growth was 83.1

Data point: N#CSCc1c(Cl)cccc1Cl ; growth = 40.2

Lab book: growth of Cc1ccnc(NC(c2ccccc2)c2ccc3cccnc3c2O)c1 (centres undefined) noted as 14.8

Notebook: CC(=O)C(=Cc1ccc(C=C(C(C)=O)C(C)=O)cc1)C(C)=O , growth read as -12.2

So for CCC1OC(OC)C=CC1=O (centres undefined) , the logged growth turned out to be 93.4

growth reading for N#CSCC(=O)c1ccc(Cl)cc1 : 28.3

The value of growth measured for the compound CCC(CCCN(CC)CCc1ccccc1)OC(=O)c1cc(OC)c(OC)c(OC)c1 (centres undefined) turned out to be 69.8

In plain terms, C=C(Cl)C(=NC(C)(C)C)Nc1ccccc1C has a documented growth of 80.7

Data point: C/C=C1\SC(=S)NC1=O ; growth = 91.6

Memo: O=C(Nc1ccccc1)c1cc(Cl)ccc1O , reported growth: 49.7

CCCCCCCCCCCCCCCCN(CC)CC has a reported growth of -69.3

---

- System: COLO 205 colon
- experiment.description: NCI-60 one-dose screen, 48 h
- stated.conditions: 10 µM unless noted
About 83,000 compounds went through this panel and 20% of them were active in at least one assay; those are over-represented in the sample as a whole. Active and inactive are the calls of the source. How the source made its calls: active means growth percent below 10; inactive means the rest.
Hello, when you answer, please use one of the following outcomes: Yes for active, No for inactive

>  <compound>
O=Nc1ccccc1N=O

>  <category.label>
No

$$$$
>  <compound>
O[C@H]1[C@H]2c3cc4c(cc3CN3CCC(=C[C@@H]1O)[C@H]23)OCO4

>  <category.label>
Yes

$$$$
>  <compound>
COC(=O)c1nc(=S)[nH]c(C(=O)OC)c1C(=O)c1ccccn1

>  <category.label>
No

$$$$
>  <compound>
CC(C)c1ccc2nc3ccc(C(=O)NCCN4CCN(c5ccccc5)CC4)cn3c(=O)c2c1

>  <category.label>
No

$$$$
>  <compound>
O=C1C2=C(Nc3cc([N+](=O)[O-])ccc3N2)OC1c1c2ccccc2cc2ccccc12 (stereo not given)

>  <category.label>
No

$$$$

# lookup: test call for CC(=O)C(=Cc1ccc(C=C(C(C)=O)C(C)=O)cc1)C(C)=O
Yes

Check the results log: what was the call for O=C(Nc1ccccc1)c1cc(Cl)ccc1O ?
No

---

- Test system: A549/ATCC NSCLC
- experiment.description: NCI-60 one-dose screen, 48 h
- stated.conditions: 10 µM unless noted
The panel holds about 83,000 compounds, 20% with a hit somewhere; the sample as a whole holds those more often. Active and inactive are the calls of the source. The calls were made as follows: active = growth percent below 10; inactive = the rest. Where a SMILES comes first, the peptide text is derived from it. The star is where a group is joined. Trt = c1ccc(C(c2ccccc2)(c2ccccc2)*)cc1; Cbz = O=C(OCc1ccccc1)*
Choose one outcome from this list and give only that: active, inactive

>  <compound>
CCN(CC)CC(C)(C)C(=O)/C=C/c1ccc(Cl)c(Cl)c1

>  <category.label>
inactive

$$$$
>  <compound>
CNc1ccc(N)cc1

>  <category.label>
inactive

$$$$
>  <compound>
CCCCCC(CCCCC)C(=O)O

>  <category.label>
inactive

$$$$
>  <compound>
CN(Cc1cnc2nc(N)nc(N)c2n1)c1ccc(C(=O)NC(CCC(=O)O)C(=O)O)cc1 (stereo unspecified)

>  <category.label>
inactive

$$$$

Can you look up the reported call for CCC(CCCN(CC)CCc1ccccc1)OC(=O)c1cc(OC)c(OC)c(OC)c1 (stereo unspecified) for me?
inactive

Which result was noted for this compound in the test: CN=C(N)N/N=C(\C)c1ccc2c(c1)Cc1cc(/C(C)=N/NC(N)=NC)ccc1-2
active

Recorded test call requested for CN(C)C(=O)SC1=C(c2c(Cl)cccc2Cl)C(=O)c2ccccc21
inactive

How was O=C(Nc1ccc(F)cc1)ON=C1CCCCC1 classified in this test?
inactive

Query: recorded result category for COC(=O)C(CSC(c1ccccc1)(c1ccccc1)c1ccccc1)NC(=O)C(CC(N)=O)NC(=O)OCc1ccccc1 (stereo not drawn) (Cbz-Asn-Cys(Trt)-OMe; configuration not given here) in this test
inactive

---

- System: CCRF-CEM leukemia
- experiment.description: NCI-60 one-dose screen, 48 h
- stated.conditions: 10 µM unless noted
This is part of a sample that, as a whole, favours compounds with a hit. Of some 83,000 tested, about 20% had one in any assay. Active and inactive are the calls of the source. The calls were made as follows: active = growth percent below 10; inactive = the rest.
A correct response names exactly one class from Yes = active, No = inactive

>  <compound>
CN(C)CCOc1ccc2c(c1)C(=O)/C(=C\c1ncc([N+](=O)[O-])n1C)C2

>  <category.label>
Yes

$$$$
>  <compound>
O=C(Nc1ccc(F)cc1)ON=C1CCCCC1

>  <category.label>
No

$$$$
>  <compound>
COc1ccc(-c2cscc2N)cc1

>  <category.label>
No

$$$$

What is the recorded call for this compound in the test? CNC(=O)N/N=C/c1ccc([N+](=O)[O-])o1
No

Hi, sorry to bother you, what did the test record for O=C(/C=C\c1ccccc1)N1c2ccccc2CC1c1c[nH]c2ccccc12 (stereo not given) ?
No

Hi team, can someone confirm the assay call for CCOC(=O)c1c(C)[nH]c(CO)c1C ?
No

Just curious, what result did Oc1c(Cl)c2ccccc2c2ccccc12 get here?
No

For this compound, state the assay outcome: C1=C(c2ccccc2)C(c2ccc(OCCN3CCCCC3)cc2)Oc2ccccc21 (stereo not given)
No
